The values you see were collected from patent US7074789B2.

Reported IC50 values follow for various compounds
- target-under-test: c-Met (Homo sapiens)
- Construct: Kinases are expressed as either kinase domains or full length constructs; made in house
- Sequence (P08581 25-1390): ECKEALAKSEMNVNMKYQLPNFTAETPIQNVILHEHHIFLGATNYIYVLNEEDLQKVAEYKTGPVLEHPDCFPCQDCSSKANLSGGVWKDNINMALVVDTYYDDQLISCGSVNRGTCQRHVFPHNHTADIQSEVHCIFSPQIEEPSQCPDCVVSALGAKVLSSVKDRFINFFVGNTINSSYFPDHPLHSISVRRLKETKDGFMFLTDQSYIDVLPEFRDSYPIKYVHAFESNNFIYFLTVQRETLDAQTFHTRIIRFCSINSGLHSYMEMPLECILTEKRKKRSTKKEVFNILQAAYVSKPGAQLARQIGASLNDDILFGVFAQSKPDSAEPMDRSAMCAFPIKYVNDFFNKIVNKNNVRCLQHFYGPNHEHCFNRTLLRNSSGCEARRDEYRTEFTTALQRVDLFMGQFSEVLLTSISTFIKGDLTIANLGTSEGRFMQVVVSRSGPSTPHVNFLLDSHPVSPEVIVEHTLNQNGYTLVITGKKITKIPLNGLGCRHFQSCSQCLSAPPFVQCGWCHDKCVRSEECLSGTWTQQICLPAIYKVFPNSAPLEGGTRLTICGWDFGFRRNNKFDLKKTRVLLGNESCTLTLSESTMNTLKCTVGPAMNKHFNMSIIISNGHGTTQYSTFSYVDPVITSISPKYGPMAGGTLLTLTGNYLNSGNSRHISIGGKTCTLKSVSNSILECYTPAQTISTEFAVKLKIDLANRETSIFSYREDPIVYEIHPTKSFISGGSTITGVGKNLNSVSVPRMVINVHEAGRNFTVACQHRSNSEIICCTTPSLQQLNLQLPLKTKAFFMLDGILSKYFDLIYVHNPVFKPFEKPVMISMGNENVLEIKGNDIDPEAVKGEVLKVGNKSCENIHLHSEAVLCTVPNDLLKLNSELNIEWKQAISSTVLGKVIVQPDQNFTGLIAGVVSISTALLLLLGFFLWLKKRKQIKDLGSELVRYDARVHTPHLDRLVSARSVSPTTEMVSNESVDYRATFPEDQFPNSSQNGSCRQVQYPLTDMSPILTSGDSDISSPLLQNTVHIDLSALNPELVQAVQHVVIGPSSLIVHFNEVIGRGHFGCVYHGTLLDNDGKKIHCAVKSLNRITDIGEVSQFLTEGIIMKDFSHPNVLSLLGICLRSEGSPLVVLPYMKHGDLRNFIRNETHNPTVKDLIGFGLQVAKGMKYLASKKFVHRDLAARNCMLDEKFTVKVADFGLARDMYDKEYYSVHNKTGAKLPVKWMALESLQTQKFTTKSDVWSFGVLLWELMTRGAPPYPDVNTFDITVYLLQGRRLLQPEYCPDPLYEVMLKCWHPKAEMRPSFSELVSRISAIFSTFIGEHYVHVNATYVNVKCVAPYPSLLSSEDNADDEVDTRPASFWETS
- experiment-summary: Kinase inhibition assay (33P transfer), c-Met
- Format: biochemical
- assay-setup: Table 2, kinase inhibition class; read-out: Met-1

Some entries whose results are on file:
compound	IC50
COc1cc(Nc2ncnc(Nc3cccc4ccccc34)n2)cc(OCCN2CCOCC2)c1OC	> 8.95 µM
COc1cc(Nc2ncnc(-n3c(NCC(N)=O)nc4ccccc43)n2)cc(OC)c1OC	> 9.99 µM
CN(c1cccc(Cl)c1)c1ncnc(Nc2ccc(CC(=O)O)cc2)n1	> 12.2 µM
c1csc(-c2ncnc(Nc3ccncc3)n2)c1	> 17.6 µM
COc1cc(Nc2ncnc(Nc3cccc4ccccc34)n2)cc(OC)c1OC	> 11.2 µM
c1csc(-c2ncnc(Nc3ccc4c(c3)OCO4)n2)c1	11.7 to 15.1 µM
CNS(=O)(=O)Cc1ccc(Nc2ncnc(Nc3ccc4c(cnn4Cc4ccccc4)c3)n2)cc1	0.799 to 4.79 µM
CC(C)(C)OC(=O)NCCCNc1ncnc(-c2ccccc2)n1	> 13.7 µM
CC(C)(C)OC(=O)Nc1ccc(Nc2ncnc(-c3ccccc3)n2)cc1	> 12.4 µM
CCC(Nc1nc2ccccc2n1-c1ncnc(Nc2cc(OC)c(OC)c(OC)c2)n1)c1ccccc1 (stereo not drawn)	> 8.8 µM

Using the record for CC(=O)Nc1ccc(Nc2ncnc(N3CCCc4cc(C)ccc43)n2)cc1 , state its measured IC50.
1.07 to 6.41 µM

Let me know recorded IC50 for CC(C)(C)c1cc(Nc2ncnc(Nc3ccc(CO)cc3)n2)[nH]n1 , thanks.
< 1.18 µM
